Answer each item with its documented pIC50.
target: human IsK protein (UniProt P15382+P70057); assay: Inhibition of IsK current in Xenopus oocytes expressing human IsK (two microelectrode voltage clamp); details: human IsK expressed in Xenopus oocytes; voltage jumps to -10 mV lasting 15 s; pH 7.5; room temperature; extrapolated using the Hill equation; read-out: IC-50 (inhibition of IsK control current)
Sequence (P70057 whole entry): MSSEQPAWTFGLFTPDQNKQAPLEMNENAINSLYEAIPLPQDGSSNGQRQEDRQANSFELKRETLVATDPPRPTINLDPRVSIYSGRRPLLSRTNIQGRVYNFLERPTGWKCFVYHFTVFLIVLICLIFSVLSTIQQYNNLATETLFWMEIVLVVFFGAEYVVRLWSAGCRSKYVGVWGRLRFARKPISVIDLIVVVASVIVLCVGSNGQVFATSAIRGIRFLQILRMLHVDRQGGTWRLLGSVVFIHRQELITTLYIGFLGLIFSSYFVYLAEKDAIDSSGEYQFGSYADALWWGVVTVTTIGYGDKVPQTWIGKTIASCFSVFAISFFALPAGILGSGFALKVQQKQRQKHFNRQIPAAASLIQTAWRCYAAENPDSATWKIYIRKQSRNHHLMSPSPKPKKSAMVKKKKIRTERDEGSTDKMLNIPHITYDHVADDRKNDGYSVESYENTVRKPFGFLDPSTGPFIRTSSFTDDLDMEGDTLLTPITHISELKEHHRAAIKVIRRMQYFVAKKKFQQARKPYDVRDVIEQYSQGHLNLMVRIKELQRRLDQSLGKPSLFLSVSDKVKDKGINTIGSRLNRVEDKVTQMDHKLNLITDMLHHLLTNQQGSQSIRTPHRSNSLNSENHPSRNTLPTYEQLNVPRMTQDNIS
Scale: pIC50 equals -log10([C]), with [C] in mol/L.

Q: Entry CCCCN(C1CC(C)(C)c2ccc([N+](=O)[O-])cc21)S(C)(=O)=O (stereo not shown) has what pIC50?
Result: 5.57

Q: Could you share which pIC50 value was measured for CCCCOc1ccc2c(c1)C(N(CC)S(C)(=O)=O)CC2(C)C (stereo not shown) ?
Result: 6.36

Q: Param item = CCCCOc1ccc2c(c1)C(N(C)S(C)(=O)=O)CC2(C)C (stereo not shown) ; retrieve measured pIC50.
Result: 5.92

meta.source: patent US6015822A
